Where these numbers come from: patent US4178442A

# System: anaesthetized dog
# Experiment: Antiangorous activity on anaesthetized dog: consumption of oxygen in the left ventricule and cardiac effort (KATZ's index)
# Assay type: in vivo
# Details: Canis lupus familiaris, iv, 2.3 mg/kg i.v. slow perfusion, read-out: Diminution in the cardiac effort (IK)
Readout Type: inhibition in vivo at 2.3 mg/kg (%)
State the answer as a number, implicitly in %.

Molecule	Readout Type	Unit Name	Assay Result
COc1cc(/C=C/C(=O)N2CCN(CC(O)COc3cc(OC)c(OC)c(OC)c3)CC2)cc(OC)c1OC (centres unmarked)	inhibition in vivo at 2.3 mg/kg	%	26
COc1cc(/C=C/C(=O)N2CCN(CC(O)COc3ccccc3Cl)CC2)cc(OC)c1OC (centres unmarked)	inhibition in vivo at 2.3 mg/kg	%	13
COc1cc(/C=C/C(=O)N2CCN(CC(O)COc3ccc4c(c3)OCO4)CC2)cc(OC)c1OC (centres unmarked)	inhibition in vivo at 2.3 mg/kg	%	19
COc1cc(/C=C/C(=O)N2CCN(CC(O)COc3cccc(C#N)c3)CC2)cc(OC)c1OC (centres unmarked)	inhibition in vivo at 2.3 mg/kg	%	12
COc1cccc(SCC(O)CN2CCN(C(=O)/C=C/c3cc(OC)c(OC)c(OC)c3)CC2)c1 (centres unmarked)	inhibition in vivo at 2.3 mg/kg	%	7

State the recorded inhibition in vivo at 2.3 mg/kg for this entry: COc1cc(/C=C/C(=O)N2CCN(CC(O)COc3ccc([N+](=O)[O-])cc3)CC2)cc(OC)c1OC (centres unmarked)
37

Quick one: COc1cc(/C=C/C(=O)N2CCN(CC(O)CSc3ccccc3)CC2)cc(OC)c1OC (centres unmarked)
35

Thanks! And COc1cc(/C=C/C(=O)N2CCN(CC(O)COc3c(OC)cccc3OC)CC2)cc(OC)c1OC (centres unmarked) ?
26
